B1: BMPRII extracellular domain (ECD), wild type [human] / BMP10 growth factor (GF)-domain from Pro:BMP10 made in HEK EBNA cells [human] (parent complex)
chain 1: SQNQERLCAFKDPYQQDLGIGESRISHENGTILCSKGSTCYGLWEKSKGDINLVKQGCWSHIGDPQECHYEECVVTTTPPSIQNGTYRFCCCSTDLCNVNFTENFPPPDTTPLSPPHSFNRDET
chain 2: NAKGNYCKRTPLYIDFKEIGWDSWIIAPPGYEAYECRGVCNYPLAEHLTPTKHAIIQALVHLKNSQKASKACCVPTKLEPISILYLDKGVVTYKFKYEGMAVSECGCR

Variants of: B1
ASSAY_NOTES: SPR (Biacore); BMP10 immobilised on a CM5 Biacore chip; parent: 1.35e+05
REPORTED_ENDPOINT: kon (M⁻¹ s⁻¹)

Use the examples below as a reference point.
alteration="chain 1 E72K" reported_endpoint=kon endpoint_value=148000
alteration="chain 1 Q66H" reported_endpoint=kon endpoint_value=120000
alteration="chain 1 G63A" reported_endpoint=kon endpoint_value=104000

a. chain 1 S81P
b. chain 1 G63E
c. chain 1 G63W
query: Sequence the entries by kon, beginning with the highest number. Return value: ordered labels per request.
result: a, b, c
(a: 129000 M⁻¹ s⁻¹, b: 3980 M⁻¹ s⁻¹, c: 1830 M⁻¹ s⁻¹)
